The measured values listed here are drawn from patent US20140308287A1.

- measuredOn: T1, human ErbB3-Fc (R&D Systems) (human, UniProt P21860 20-643)
- T1 construct: Bought protein; also called wild-type ErbB3-Fc fusion; immobilized ErbB3; not shown: Fc part of the bought fusion protein; not described
- method: ELISA on ErbB3-Fc, soluble monovalent Sab (Example 42)
measuredQuantity: EC50 (nM)
Write it as a number; the unit nM goes unstated.

State the recorded EC50 for this entry: 2995-B06 (other) VH: EVQLLESGGGLVQPGGSLRLSCAASGFTFSNYGMHWVRQAPGKGLEWVALISSGGAYTYYADSVKGRFTISRDNSKNTLYLQMNSLRAEDTAVYYCAKDNFILLNSWFDYWGQGTLVTVSS light: QPVLHQPPAMSSALGTTIRLTCTLRNDHDIGVYSVYWYQQRPGHPPRFLLRYFSQSDKSQGPQVPPRFSGSKDVARNRGYLSISELQPEDEAMYYCAMGARSSVTHVFGSGTQLTVLSQPKATPSVTLFPPSSEELQANKATLVCLMNDFYPGILTVTWKADGTPITQGVEMTTPSKQSNNKYAASSYLSLTPEQWRSRRSYSCQVMHEGSTVEKTVAPAECS
0.01
